Values were extracted from the supplement of paper PMC10567573.

Readings of protein stability index for the listed variants
B1: MFF (parent)
chain: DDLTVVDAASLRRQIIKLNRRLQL

# Variants of: B1
# assay_procedure: protein stability index of a GFP-peptide fusion (GPS, HEK-293T) (PSI 1-6); higher = more stable;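 note: lentivirally expressed fusions sorted by FACS into six bins by GFP to DsRed ratio, PSI derived from sequencing read proportions per bin multiplied by bin number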
# recorded_conditions: c terminus: a fixed tail appended
measured_quantity: protein stability index

> print(dat)
    variant  test.value
 1     K17H        2.08
 2     N19V        2.25
 3      A9D        2.02
 4     L11P        3.33
 5     N19K        1.94
 6     L22M        3.02
 7     L18F        3.41
 8      T4Q        2.32
 9     I15Q        3.66
10      V5S         2.5
11     R21N        2.46
12     L18S        3.04
13     R13C        2.22
14     R13L        2.56
15      D1Y        2.81
16     I15P        4.26
17     I15F           2
18      A8S        2.49
19     Q14G         2.5
20     R20Y        1.74
21      T4P        1.56
22     L24Y        1.72
23     Q23F        2.32
24      A8E        2.63
25     R12A        2.07
26      L3A        2.59
27      A8P        2.42
28     I16M        1.67
29      A8V         1.9
30     L24C        2.06
31      V5M        2.05
32     S10M        1.42
33     I15L        2.23
34      D7Y        1.61
35     Q23N        2.31
36      A8I        1.61
37      D2M        2.09
38     R21M        1.14
39     N19P        2.33
40     R20G        2.04
41     L11R        3.91
42     S10F        2.32
43     Q23D        2.33
44      D2V        1.13
45     I15Y        2.57
46     R13E        2.42
